- Assay target: Voltage-gated potassium channel subunit beta-2 (Rattus norvegicus) (UniProt P62483)
- Sequence (P62483 whole entry, looked up): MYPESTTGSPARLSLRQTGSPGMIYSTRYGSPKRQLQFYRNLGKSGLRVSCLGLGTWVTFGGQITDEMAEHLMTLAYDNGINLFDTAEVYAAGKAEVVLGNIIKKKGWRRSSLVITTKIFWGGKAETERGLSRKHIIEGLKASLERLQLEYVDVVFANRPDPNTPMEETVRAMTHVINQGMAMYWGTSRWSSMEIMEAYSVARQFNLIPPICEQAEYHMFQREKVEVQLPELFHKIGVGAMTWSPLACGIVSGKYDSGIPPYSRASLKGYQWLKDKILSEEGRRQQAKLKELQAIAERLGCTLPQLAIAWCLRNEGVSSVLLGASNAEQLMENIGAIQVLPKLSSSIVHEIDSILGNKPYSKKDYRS
- Assay remarks: enhancers of rat Kvbeta2 NADPH turnover – biochemical, NADPH fluorescence, primary screen (AID 623);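 note: fluorescence intensity change per second fitted from 20 to 320 s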
- Reported conditions: Recombinant KvBeta, NADPH fluorescence decrease slope, 10 min; at 10 µM; stronger effect = lower value
Measurement kind: NADPH fluorescence slope
Please give only the number in your answer, with no unit.

Compound	NADPH fluorescence slope
COc1ccc(S(=O)(=O)NCCC(=O)NC2CCCCCCC2)cc1	-8.9e-05
Fc1cccc2sc(N3CCOCC3)nc12	-3.9e-05
CN(Cc1nc(-c2ccncc2)no1)S(=O)(=O)c1ccc(Cl)cc1	6.1e-06
CCCCOC(=O)CNc1nnc(SCC(=O)OCC)[nH]c1=O	-7.9e-06
Cc1cccc(OCC(=O)N2CCN(C(=O)Cc3ccccc3)CC2)c1	-4.5e-05

Prompt: I have this compound here, `O=c1c2ccccc2nc(SCc2nnc(-c3ccccc3Br)o2)n1-c1ccccc1` , and I need its recorded NADPH fluorescence slope.
Response: -4.9e-05

Prompt: I have this compound here, `CCCCCSc1nc2c(cnn2-c2ccccc2)c(=O)[nH]1` , and I need its recorded NADPH fluorescence slope.
Response: -5.4e-05

Prompt: I have this compound here, CCOC(=O)C(CC)Sc1nc2c(c(=O)[nH]c(=O)n2C)n1C/C=C(/C)Cl (stereo unspecified) , and I need its recorded NADPH fluorescence slope.
Response: -6.7e-05

Prompt: I have this compound here, `C=CCn1c(SCc2cccc(C#N)c2)nnc1-c1ccccc1O` , and I need its recorded NADPH fluorescence slope.
Response: 1.6e-05

Prompt: I have this compound here, `CN(C)c1ccc(NC(=O)Cn2cc3c(n2)CCCC3)cc1` , and I need its recorded NADPH fluorescence slope.
Response: -4.3e-05

Prompt: I have this compound here, `O=C(COc1ccccc1F)NC1CC1` , and I need its recorded NADPH fluorescence slope.
Response: -4.8e-05

Prompt: I have this compound here, `COC(=O)CSc1ncccc1-c1nc2ccccc2[nH]1` , and I need its recorded NADPH fluorescence slope.
Response: 3.1e-05

Prompt: I have this compound here, COCCn1nnnc1C(c1cc2cc(OC)ccc2[nH]c1=O)N1CCC(Cc2ccccc2)CC1 (stereo unspecified) , and I need its recorded NADPH fluorescence slope.
Response: 1.6e-05

Prompt: I have this compound here, `O=C(CSc1nc2ccccc2s1)N1CCN(C(=O)c2ccco2)CC1` , and I need its recorded NADPH fluorescence slope.
Response: 9e-06
